Source listed as patent US7396524B2.

Reported values of maximal TdP score in the testing concentration range for individual entries
# System: rabbit left ventricular wedge preparations and single rabbit ventricular myocytes
# Settings: 20 min
Measurement Type: maximal TdP score in the testing concentration range

> print(dat)
                                   compound  experimental.value
1  CC(C)NCC(O)c1ccc(NS(C)(=O)=O)cc1 (stereo not shown)               10.00
2  CN(C)CCCC1(c2ccc(F)cc2)OCc2cc(C#N)ccc21 (stereo not shown)                1.25
3  C=C[C@H]1C[N@@]2CC[C@H]1C[C@@H]2[C@@H](O)c1ccnc2ccc(OC)cc12               11.75
4  COc1c(N2C[C@@H]3CCCN[C@@H]3C2)c(F)cc2c(=O)c(C(=O)O)cn(C3CC3)c12                4.00
5  O=C(NCC1CCCCN1)c1cc(OCC(F)(F)F)ccc1OCC(F)(F)F (stereo not shown) [flecainide]                1.25
6  O=C(CCCN1CCC(O)(c2ccc(Cl)cc2)CC1)c1ccc(F)cc1                4.20
7  CC(C)COCC(CN(Cc1ccccc1)c1ccccc1)N1CCCC1 (stereo not shown)                7.50

====

# System: rabbit left ventricular wedge preparations and single rabbit ventricular myocytes
# Settings: 20 min
Reported values of Maximal TdP Score for individual entries
Measurement Type: Maximal TdP Score

> print(dat)
                                   molecule  experimental.value
1  C=C[C@H]1C[N@@]2CC[C@H]1C[C@@H]2[C@@H](O)c1ccnc2ccc(OC)cc12                11.8
2  O=C(NCC1CCCCN1)c1cc(OCC(F)(F)F)ccc1OCC(F)(F)F (stereo not shown) [flecainide]                 1.3
3  CC(C)NCC(O)c1ccc(NS(C)(=O)=O)cc1 (stereo not shown)                10.0
4  CN(C)CCCC1(c2ccc(F)cc2)OCc2cc(C#N)ccc21 (stereo not shown)                 1.3
5  COc1c(N2C[C@@H]3CCCN[C@@H]3C2)c(F)cc2c(=O)c(C(=O)O)cn(C3CC3)c12                 4.0
6  O=C(CCCN1CCC(O)(c2ccc(Cl)cc2)CC1)c1ccc(F)cc1                 4.2
7  CC(C)COCC(CN(Cc1ccccc1)c1ccccc1)N1CCCC1 (stereo not shown)                 7.5
